valueType: melting point

compound | observed
COc1cc2nc(CO)c(CO)c(-c3ccnc(NN)c3)c2cc1OC | 225 to 227 °C
COc1ccccc1CNc1ccc2cc(Nc3ncc(C(F)(F)F)o3)ccc2n1 | 166 °C

Please give the documented melting point of COc1cc2cc(CO)c(CO)c(-c3ccnc(Nc4ccccc4C(CO)CCO)c3)c2cc1OC (configuration not stated)
204 to 207 °C

Please give the documented melting point of CCCCCCCCOc1ccc(C(N)=O)c(O)c1
123 to 124 °C

Please give the documented melting point of CN(c1ccccc1)S(=O)(=O)c1ccc(C=CC(C)(O)C(F)(F)F)cc1 (configuration not stated)
146 to 148 °C

Please give the documented melting point of Nc1ccc(OCCCCCCCCCCOc2ccc(N)cc2)cc1
70 to 71 °C

Please give the documented melting point of OC(c1ccccc1)(c1ccc(F)cc1)C1CCNCC1 (configuration not stated)
144 to 146 °C

Please give the documented melting point of CCCOc1ccccc1-c1ccc(C(N)=O)c(=O)[nH]1
176 to 178 °C

Please give the documented melting point of COCc1c(S(C)(=O)=O)ccc(C(=O)C2SCCCC2=O)c1C (configuration not stated)
152 to 154 °C

----------
melting point reference

These solved cases illustrate the format of a correct answer.
testSmiles | valueType | observed
CCCCCc1ccc(-c2ccc(N)cc2)nc1 | melting point | 60.3 to 61.3 °C
CCOC(=O)C1=Cc2ccc(O)cc2OCC1 | melting point | 131 to 132 °C

# context switch: different compound, same melting point
Please give the documented melting point of Cc1oc(-c2ccc(C(F)(F)F)cc2)nc1-c1ccc(-c2cc(Br)c(O)c(Br)c2)cc1
79 to 81 °C

----------
melting point reference

These solved cases illustrate the format of a correct answer.
testSmiles | melting point
Cc1noc(NS(=O)(=O)c2cc3ccccc3s2)c1C | 157 to 160 °C
CNc1nc(-c2cccc(NC(=O)c3ccc(OC)c(OC)c3)c2)c2cc(OC)c(OC)cc2n1 | 128 to 130 °C
CC(=O)Oc1cccc(-c2c3ccccc3c(Br)c3sc4ccccc4c23)c1 | 74 to 76 °C
NC(=O)c1c(-c2cccc(F)c2)c(Cl)n2c1CN(C(=O)N[C@H]1CC[C@H](O)CC1)CC2 | 251 to 253 °C
Cn1ncc(/C=C/C(=O)Nc2ccc(Cc3nc4c(s3)CCCC4)cc2)c1-c1ccc(F)cc1 | 205 to 206 °C

# context switch: different compound, same melting point
Please give the documented melting point of CC1(C)C(=O)Oc2ccc(Br)cc21
55 to 56 °C

----------
valueType: melting point

Please give the documented melting point of COc1ccc(C)cc1NC(=O)Nc1ccc(N2CCN(C(=O)Nc3cc(OCCO)ccc3Cl)CC2)nc1
132 to 134 °C

Please give the documented melting point of CCCCCCCNC(=O)CCCCSc1nc(-c2ccccc2)c(-c2ccccc2)[nH]1
104 to 106 °C

Please give the documented melting point of COc1cc(C)c2c(c1OC)CCCC2=O
58 to 62 °C

Please give the documented melting point of COc1ccc(C(=O)Nc2ccccc2)cc1NS(=O)(=O)c1ccc(C#N)cc1
206 to 208 °C

----------
melting point reference

compound | melting point
NCCCCNC(=O)C(=O)NCCCCN | 106 to 108 °C

Please give the documented melting point of Cc1cc(O)c(SCC2CCCCC2)c(=O)o1
81.5 to 83 °C

Please give the documented melting point of CC(Cl)(Cl)C(NC(=O)c1ccc(Cl)cc1)Nc1c(Nc2cccnc2)c(=O)c1=O (stereo not drawn)
201 to 202 °C

Please give the documented melting point of CC(C)n1c(=O)[nH]c2c(C(N)=O)nc(-c3cccc(O)c3)nc21
338 to 342 °C

Please give the documented melting point of CC(SCc1nccc2ccccc12)C(=O)O (stereo not drawn)
153 to 156 °C

Please give the documented melting point of COc1ccc(-c2cc(F)c3c(c2)CC(CN)O3)cc1 (stereo not drawn)
> 250 °C

Please give the documented melting point of O=C(O)COC1(Cl)C=C2ONC(c3ccccc3F)=C2C(Cl)=C1Cl (stereo not drawn)
222 to 224 °C

Please give the documented melting point of CCCCOc1ccccc1-c1ncc(C(=O)O)c(=O)[nH]1
163 to 165 °C

Please give the documented melting point of CCS(=O)(=O)c1nsc(NC(=O)NC)c1C(N)=O
219 to 220 °C

Please give the documented melting point of O=C(O)CCCCCCCNC(=O)c1ccccc1NC(=O)c1ccccc1O
124 to 125 °C

Please give the documented melting point of CC(=O)Nc1ccc(C(=S)SCC(=O)O)cc1
224 to 226 °C

Please give the documented melting point of COC(=O)c1ccc(S(C)(=O)=O)c(C(=O)NN)c1Cl
85 to 95 °C

Please give the documented melting point of CCc1cc2c(=O)c3cccc(C(=O)OCOC(=O)C(C)(C)C)c3n(Cc3ccc(-c4ccccc4-c4nnn[nH]4)cc3)c2s1
146 to 152 °C

Please give the documented melting point of CC(C)(C)C(=O)CC(Sc1ccccc1)c1ccc(Cl)cc1Cl (stereo not drawn)
79 to 80 °C

Please give the documented melting point of C[C@@H]1N=C(c2ccccc2F)c2c(ccc(N)c2Cl)N(C)C1=O
222 to 226 °C

Please give the documented melting point of CCOc1nnc(NCc2ccc(OC)c(Cl)c2)c2cc(Cl)ccc12
111 to 115 °C

Please give the documented melting point of NC(Cc1ccccc1)C(O)C1=NCCS1 (mixture of isomers)
82.3 to 90 °C

Please give the documented melting point of COc1cc(N)c(Cl)cc1C(=O)NCC1CCN(CCCCCN)CC1
60 to 63 °C

Please give the documented melting point of Cc1c(-n2ccnc2)[nH]c2ccccc12
156 to 158 °C

Source: a melting point compilation (Tetko et al.; mined from patent text by program, amines drawn as free bases though some values may be those of a salt)
